The reported measurements were obtained from patent US20100063026A1.

Tested on: Streptococcus pneumoniae (ATCC6305)
Assay: Microtitre plate IC90 determination against non-mycobacterial strains: S. pneumoniae
Format: cell-based
Details: 90% inhibitory concentration for bacterial growth; 24 hours, 37° C., resazurin fluorescence
Parameter: IC90 SPN 1 6305

COc1nc2ccc(Br)cc2cc1C(c1ccccc1)C(O)(CCCCN1CCN(C2CCN(Cc3ccccc3)C2)CC1)c1ccc2ccccc2c1 (single isomer, unassigned) [Compound 30b]
31 µg/mL
COc1nc2ccc(Br)cc2cc1C(c1ccccc1)C(O)(CCCCN1CCN(C2CCN(Cc3ccccc3)C2)CC1)c1ccc2ccccc2c1 (single isomer, unassigned) [Compound 31]
15.6 µg/mL
COc1nc2ccc(Br)cc2cc1C(c1ccccc1)C(O)(CCCCN1CCC1)c1ccccc1 (single isomer, unassigned) [Compound 41]
1.7 µg/mL
COc1nc2ccc(Br)cc2cc1C(c1ccccc1)C(O)(CCCCN1CC2CC1CN2Cc1ccccc1)c1ccc2ccccc2c1 (single isomer, unassigned) [Compound 21]
0.6 µg/mL
COc1nc2ccc(Br)cc2cc1C(c1ccccc1)C(O)(CCCCN1CCCN(C)CC1)c1ccc2ccccc2c1 (stereo not shown) [Compound 34b]
2.1 µg/mL
COc1nc2ccc(Br)cc2cc1C(c1ccccc1)C(O)(CCCCNC1CC2CCC1C2)c1ccc2ccccc2c1 (stereo not shown)
0.5 µg/mL
COc1nc2ccc(Br)cc2cc1C(c1ccccc1)C(O)(CCCCN1CC2CC1CN2Cc1ccccc1)c1ccc2ccccc2c1 (stereo not shown) [Compound 22]
2.9 µg/mL
COc1nc2ccc(Br)cc2cc1C(c1ccccc1)C(O)(CCCCN(C)CCc1ccccn1)c1ccccc1 (stereo not shown) [Compound 9]
2.2 µg/mL
COc1nc2ccc(Br)cc2cc1C(c1ccccc1)C(O)(CCCCN1CCCN(C)CC1)c1ccc2ccccc2c1 (stereo not shown) [Compound 35a]
0.4 µg/mL
COc1nc2ccc(Br)cc2cc1C(c1ccccc1)C(O)(CCCCN(C)CCc1ccccn1)c1ccccc1 (stereo not shown) [Compound 7]
2.0 µg/mL

Prompt: Which IC90 SPN 1 6305 is reported with Streptococcus pneumoniae (ATCC6305) for this entry: COc1nc2ccc(Br)cc2cc1C(c1ccccc1)C(O)(CCCCN(C)C(=N)N)c1ccccc1 (single isomer, unassigned) ?
Response: 2.2 µg/mL

Prompt: Which IC90 SPN 1 6305 is reported with Streptococcus pneumoniae (ATCC6305) for this entry: COc1nc2ccc(Br)cc2cc1C(c1ccccc1)C(O)(CCCCCN1CCCN(C)CC1)c1ccc2ccccc2c1 (single isomer, unassigned) [Compound 55] ?
Response: 0.4 µg/mL

Prompt: Which IC90 SPN 1 6305 is reported with Streptococcus pneumoniae (ATCC6305) for this entry: COc1nc2ccc(Br)cc2cc1C(c1ccccc1)C(O)(CCCCN1CCN(C2CCN(Cc3ccccc3)C2)CC1)c1ccc2ccccc2c1 (single isomer, unassigned) [Compound 30] ?
Response: 2.5 µg/mL
